Overview of reported drug sensitivity score across a group of molecules:
Test system: KURAMOCHI
Experiment: drug sensitivity score (DSS2) on cancer cell count; higher = more sensitive; extreme values may be limits of the assay
Settings: co-cultured fibroblast: WI38; 72 h
METRIC NAME: drug sensitivity score (DSS)

{"MOLECULE": "CO[C@@H](C)Cn1c(=O)n(C)c2cnc3ccc(-c4cncc(C(C)(C)O)c4)cc3c21", "METRIC NAME": "drug sensitivity score", "ENDPOINT RESULT": 10.9}
{"MOLECULE": "COc1cc(NS(C)(=O)=O)ccc1Nc1c2ccccc2nc2ccccc12", "METRIC NAME": "drug sensitivity score", "ENDPOINT RESULT": 18.8}
{"MOLECULE": "Cc1cc(Nc2ncc(Cl)c(Nc3ccccc3S(=O)(=O)C(C)C)n2)c(OC(C)C)cc1C1CCNCC1", "METRIC NAME": "drug sensitivity score", "ENDPOINT RESULT": 0}
{"MOLECULE": "CC[C@H](NC(=O)[C@H](C)NC)C(=O)N1C[C@@H](O)C[C@H]1Cc1c(-c2[nH]c3cc(F)ccc3c2C[C@@H]2C[C@H](O)CN2C(=O)[C@H](CC)NC(=O)[C@H](C)NC)[nH]c2cc(F)ccc12", "METRIC NAME": "drug sensitivity score", "ENDPOINT RESULT": 0}
{"MOLECULE": "COc1cc(Nc2c(C#N)cnc3cc(OCCCN4CCN(C)CC4)c(OC)cc23)c(Cl)cc1Cl", "METRIC NAME": "drug sensitivity score", "ENDPOINT RESULT": 11}
{"MOLECULE": "Nc1nc(NC2CC2)cc(-c2cccc(Cl)c2Cl)n1", "METRIC NAME": "drug sensitivity score", "ENDPOINT RESULT": 6.7}
{"MOLECULE": "Nc1nc(OCc2cc(Br)cs2)c2[nH]cnc2n1", "METRIC NAME": "drug sensitivity score", "ENDPOINT RESULT": 0}
{"MOLECULE": "CNC(=O)c1cc(Oc2ccc(NC(=O)Nc3ccc(Cl)c(C(F)(F)F)c3)cc2)ccn1", "METRIC NAME": "drug sensitivity score", "ENDPOINT RESULT": 0}
{"MOLECULE": "N#Cc1ccc(COC[C@H]2O[C@@H](n3c(NCc4ccc(Cl)c(Cl)c4)nc4c(N)ncnc43)[C@H](O)[C@@H]2O)cc1", "METRIC NAME": "drug sensitivity score", "ENDPOINT RESULT": 3.3}
{"MOLECULE": "CC[C@@H]1[C@H](F)C(=O)N[C@@H]1COc1nccc2cc(C(N)=O)c(OC)cc12", "METRIC NAME": "drug sensitivity score", "ENDPOINT RESULT": 1.8}
{"MOLECULE": "CC(O)c1cc(C(=O)N[C@@H](C)Cn2ccc(-c3ccc(C#N)c(Cl)c3)n2)n[nH]1 (some centres undefined)", "METRIC NAME": "drug sensitivity score", "ENDPOINT RESULT": 0}
{"MOLECULE": "Cc1ccc(-n2nc(C(C)(C)C)cc2NC(=O)Nc2ccc(OCCN3CCOCC3)c3ccccc23)cc1", "METRIC NAME": "drug sensitivity score", "ENDPOINT RESULT": 3.4}
{"MOLECULE": "C1=N/C2=N/c3ccc(OCCN4CCCC4)c(c3)COC/C=C/COCc3cccc(c3)C(=C1)N2", "METRIC NAME": "drug sensitivity score", "ENDPOINT RESULT": 8.6}
{"MOLECULE": "S=C(NCc1ccc2c(c1)OCO2)N1CCN(c2ncnc3c2oc2ccccc23)CC1", "METRIC NAME": "drug sensitivity score", "ENDPOINT RESULT": 0.5}
{"MOLECULE": "COc1cc2ncnc(Oc3cccc(NC(=O)Nc4cc(C(C)(C)C(F)(F)F)on4)c3)c2cc1OC", "METRIC NAME": "drug sensitivity score", "ENDPOINT RESULT": 1.4}
{"MOLECULE": "CCCCCCCCCCCCCCCCOP(=O)([O-])OCC[N+](C)(C)C", "METRIC NAME": "drug sensitivity score", "ENDPOINT RESULT": 7.4}
{"MOLECULE": "Cc1nc(=O)c2cc(CN(C)c3ccc(C(=O)N[C@@H](CCC(=O)O)C(=O)O)s3)ccc2[nH]1", "METRIC NAME": "drug sensitivity score", "ENDPOINT RESULT": 16.8}
{"MOLECULE": "Cc1cc(C(C)Nc2ccccc2)c2nc(N3CCOCC3)cc(=O)n2c1 (centres undefined)", "METRIC NAME": "drug sensitivity score", "ENDPOINT RESULT": 0}
{"MOLECULE": "CN[C@@H]1C[C@H]2O[C@@](C)([C@@H]1OC)n1c3ccccc3c3c4c(c5c6ccccc6n2c5c31)C(=O)N[C@H]4O", "METRIC NAME": "drug sensitivity score", "ENDPOINT RESULT": 17.3}
{"MOLECULE": "CO[C@H]1C[C@@H]2CC[C@@H](C)[C@@](O)(O2)C(=O)C(=O)N2CCCC[C@H]2C(=O)O[C@H]([C@H](C)C[C@@H]2CC[C@@H](O)[C@H](OC)C2)CC(=O)[C@H](C)/C=C(\\C)[C@@H](O)[C@@H](OC)C(=O)[C@H](C)C[C@H](C)/C=C/C=C/C=C/1C", "METRIC NAME": "drug sensitivity score", "ENDPOINT RESULT": 5}
{"MOLECULE": "O=C(Nc1c[nH]nc1-c1nc2ccc(CN3CCOCC3)cc2[nH]1)NC1CC1", "METRIC NAME": "drug sensitivity score", "ENDPOINT RESULT": 16}
{"MOLECULE": "CN(C)C/C=C/C(=O)Nc1cc2c(Nc3ccc(F)c(Cl)c3)ncnc2cc1O[C@H]1CCOC1", "METRIC NAME": "drug sensitivity score", "ENDPOINT RESULT": 5}
{"MOLECULE": "O=S(=O)(c1cccc2c(O)nccc12)N1CCCNCC1 [Hydroxyfasudil]", "METRIC NAME": "drug sensitivity score", "ENDPOINT RESULT": 1}
{"MOLECULE": "CCCN(CCC)C(=O)C1=Cc2ccc(-c3ccc(C(=O)N4CCCC4)cc3)cc2N=C(N)C1", "METRIC NAME": "drug sensitivity score", "ENDPOINT RESULT": 0}
{"MOLECULE": "COC(=O)c1ccc2c(c1)NC(=O)/C2=C(\\Nc1ccc(N(C)C(=O)CN2CCN(C)CC2)cc1)c1ccccc1", "METRIC NAME": "drug sensitivity score", "ENDPOINT RESULT": 2.7}
{"MOLECULE": "CC[C@@](C)(Nc1ccnc(-c2c[nH]c3ncccc23)n1)C(=O)NCC(F)(F)F", "METRIC NAME": "drug sensitivity score", "ENDPOINT RESULT": 3.3}
{"MOLECULE": "C=CC(=O)Nc1cccc(Nc2nc(Nc3ccc(OCCOC)cc3)ncc2F)c1", "METRIC NAME": "drug sensitivity score", "ENDPOINT RESULT": 0}
{"MOLECULE": "CCC/C=C/C=C/C(=O)O[C@H]1/C(=C/C(=O)OC)C[C@H]2C[C@H]([C@@H](C)O)OC(=O)C[C@H](O)C[C@@H]3C[C@H](OC(C)=O)C(C)(C)[C@](O)(C[C@@H]4C/C(=C/C(=O)OC)C[C@H](/C=C/C(C)(C)[C@]1(O)O2)O4)O3", "METRIC NAME": "drug sensitivity score", "ENDPOINT RESULT": 0}
{"MOLECULE": "C[C@]12CC[C@H](O)CC1=CC[C@@H]1[C@@H]2CC[C@]2(C)C(c3cccnc3)=CC[C@@H]12", "METRIC NAME": "drug sensitivity score", "ENDPOINT RESULT": 0}
